System: PPARg DBDmut IVT, anti-PPARg (DBD mutation: PPARg1 K132A/R137A, NR concentration 270 nM)
Assay: PBM binding z-score (relative to random genomic background probes); higher = stronger binding; sequences stand for … in GC…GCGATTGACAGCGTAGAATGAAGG
Measurement Label: PBM binding z-score

Sequence Chain | Result
GCTTGTACATCAAGGTTAAGAAAGACTAAGCTAA | -0.0385
ATATGTAGGTTAAGGGTCACTCAGGTTGGTTCGC | 2.59
ATCGAAAGGTCGACGAGGTGAGTGTACACCGTTT | 0.365
ATATGTAGGTTATCGGGTCTTTCAGTTTGCGCAT | 2.32
TCATATAGGTAAATGCTAGGTGAAACTCCGATCT | 1.1
GCTAGTTGGTCAGTAAAAGGTCAGACACCGGTCG | 0.136

Here is the next item to consider.
PBM binding z-score recorded for this sequence, "CCTTACGGGTCACGAGGTTATGGCACGACGAGCG" , is 0.892
